Each recorded value in this set is attributed to ChEMBL document CHEMBL3351417.

# EXPERIMENTAL_PROTOCOL: Growth inhibition of human MKN7 cells after 48 hrs by sulforhodamine B colorimetric assay
# Assay type: functional
# ASSAY_SETUP: MKN-7, 48 h
GI50 vs 400 nM: less than gives 1; not less than gives -1.

Use these answered entries as a reference point.
[
  {
    "SUBSTANCE_SMILES": "CCCCCCCCCCCC[C@@H](O)[C@H]1CC[C@H]([C@H](O)CCCCCCCCCCNC(=O)c2cccs2)O1",
    "GROUP": 1
  },
  {
    "SUBSTANCE_SMILES": "CCCCCCCCCCCC[C@@H](O)[C@H]1CC[C@H]([C@H](O)CCCCCCCCCCNC(=O)c2ccco2)O1",
    "GROUP": -1
  },
  {
    "SUBSTANCE_SMILES": "CCCCCCCCCCCC[C@@H](O)[C@H]1CC[C@H]([C@H](O)CCCCCCCCCCNC(=O)c2ccoc2)O1",
    "GROUP": 1
  },
  {
    "SUBSTANCE_SMILES": "CCCCCCCCCCCC[C@@H](O)[C@H]1CC[C@H]([C@H](O)CCCCCCCCCCNC(=O)c2cncs2)O1",
    "GROUP": -1
  }
]

Query compound follows.
Query string: Bench note: check whether `CCCCCCCCCCCC[C@@H](O)[C@H]1CC[C@H]([C@H](O)CCCCCCCCCCNC(=O)c2ccsc2)O1` shows GI50 below 400 nM
Result string: 1

---

# EXPERIMENTAL_PROTOCOL: Growth inhibition of human MKN28 cells after 48 hrs by sulforhodamine B colorimetric assay
# Format: functional
# ASSAY_SETUP: MKN-28, 48 h
OBSERVED_PROPERTY: GI50 (nM)
Record the value in nM, omitting the unit from your answer.

Worked set:
[
  {
    "SUBSTANCE_SMILES": "CCCCCCCCCCCC[C@@H](O)[C@H]1CC[C@H]([C@H](O)CCCCCCCCCCNC(=O)c2cncs2)O1",
    "OBSERVED_PROPERTY": "GI50",
    "OUTPUT_UNIT": "nM",
    "QUANTITATIVE_READOUT": 832
  },
  {
    "SUBSTANCE_SMILES": "CCCCCCCCCCCC[C@@H](O)[C@H]1CC[C@H]([C@H](O)CCCCCCCCCCNC(=O)c2ccsc2)O1",
    "OBSERVED_PROPERTY": "GI50",
    "OUTPUT_UNIT": "nM",
    "QUANTITATIVE_READOUT": 575
  },
  {
    "SUBSTANCE_SMILES": "CCCCCCCCCCCC[C@@H](O)[C@H]1CC[C@H]([C@H](O)CCCCCCCCCCNC(=O)c2cccs2)O1",
    "OBSERVED_PROPERTY": "GI50",
    "OUTPUT_UNIT": "nM",
    "QUANTITATIVE_READOUT": 363
  },
  {
    "SUBSTANCE_SMILES": "CCCCCCCCCCCC[C@@H](O)[C@H]1CC[C@H]([C@H](O)CCCCCCCCCCNC(=O)c2ccco2)O1",
    "OBSERVED_PROPERTY": "GI50",
    "OUTPUT_UNIT": "nM",
    "QUANTITATIVE_READOUT": 617
  }
]

Query string: # query: GI50 of entry `CCCCCCCCCCCC[C@@H](O)[C@H]1CC[C@H]([C@H](O)CCCCCCCCCCNC(=O)c2ccoc2)O1`
Result string: 550
